Property: fold change of affinity; scope: individual binders
system: T1, Human CD3eg linker (human)
T1 construct: Single-chain construct; also called recombinant human CD3
T1 chain: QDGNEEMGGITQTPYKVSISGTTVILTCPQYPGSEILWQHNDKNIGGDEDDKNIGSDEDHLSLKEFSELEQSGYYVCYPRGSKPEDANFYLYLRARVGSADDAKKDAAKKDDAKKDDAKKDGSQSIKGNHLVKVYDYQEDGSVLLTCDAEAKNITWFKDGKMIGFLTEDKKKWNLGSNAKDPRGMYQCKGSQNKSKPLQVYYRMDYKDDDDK
testMethodNotes: SPR; fold vs parent H183/L072
Give just the numeric value; fold need not be written.

The examples below pair each entry with its known result.
binder="H183/L072 VL R29W (antibody, name in Kabat numbering, V domains shown) VH: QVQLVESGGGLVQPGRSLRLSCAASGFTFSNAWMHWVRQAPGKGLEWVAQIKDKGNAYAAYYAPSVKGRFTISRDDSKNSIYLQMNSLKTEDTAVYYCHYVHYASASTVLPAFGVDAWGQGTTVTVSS VL: DIVMTQSPLSLPVTPGEPASISCQASQELVHMNWNTYLHWYQQKPGQAPRLLIYKVSNRFPGVPDRFSGSGSGTDFTLKISRVEAEDVGVYYCAQGTSVPFTFGQGTKLEIK" assayresult=0.5
binder="H183/L072 VL Q24F (antibody, name in Kabat numbering, V domains shown) VH: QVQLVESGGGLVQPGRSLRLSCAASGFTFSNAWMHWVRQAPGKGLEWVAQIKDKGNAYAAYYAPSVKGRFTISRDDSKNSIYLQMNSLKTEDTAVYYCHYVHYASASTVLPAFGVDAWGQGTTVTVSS VL: DIVMTQSPLSLPVTPGEPASISCFASQELVHMNRNTYLHWYQQKPGQAPRLLIYKVSNRFPGVPDRFSGSGSGTDFTLKISRVEAEDVGVYYCAQGTSVPFTFGQGTKLEIK" assayresult=0.9
binder="H183/L072 VL F55I (antibody, name in Kabat numbering, V domains shown) VH: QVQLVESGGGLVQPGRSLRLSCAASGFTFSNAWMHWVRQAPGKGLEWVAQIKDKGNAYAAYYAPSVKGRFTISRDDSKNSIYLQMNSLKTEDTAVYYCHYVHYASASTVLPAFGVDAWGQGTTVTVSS VL: DIVMTQSPLSLPVTPGEPASISCQASQELVHMNRNTYLHWYQQKPGQAPRLLIYKVSNRIPGVPDRFSGSGSGTDFTLKISRVEAEDVGVYYCAQGTSVPFTFGQGTKLEIK" assayresult=3.4
binder="H183/L072 VL V51G (antibody, name in Kabat numbering, V domains shown) VH: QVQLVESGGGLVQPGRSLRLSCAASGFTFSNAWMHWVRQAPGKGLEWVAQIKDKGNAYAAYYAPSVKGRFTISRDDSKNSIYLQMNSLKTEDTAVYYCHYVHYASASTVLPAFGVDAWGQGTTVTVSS VL: DIVMTQSPLSLPVTPGEPASISCQASQELVHMNRNTYLHWYQQKPGQAPRLLIYKGSNRFPGVPDRFSGSGSGTDFTLKISRVEAEDVGVYYCAQGTSVPFTFGQGTKLEIK" assayresult=0.4

Request the reported fold change of affinity associated with H183/L072 VL A89K (antibody, name in Kabat numbering, V domains shown) VH: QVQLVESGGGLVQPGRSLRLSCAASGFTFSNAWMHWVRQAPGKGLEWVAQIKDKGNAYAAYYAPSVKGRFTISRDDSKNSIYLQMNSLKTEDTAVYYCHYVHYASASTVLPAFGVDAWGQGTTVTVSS VL: DIVMTQSPLSLPVTPGEPASISCQASQELVHMNRNTYLHWYQQKPGQAPRLLIYKVSNRFPGVPDRFSGSGSGTDFTLKISRVEAEDVGVYYCKQGTSVPFTFGQGTKLEIK
1.1
